# Tested Target: T1, recombinant human VEGF165 (human, UniProt P15692-4 27-191, biotinylated in the competition assays)
# T1 construct: Bought protein; also called hVEGF165; rhVEGF165
# T1 sequence (P15692 other isoform, or with tags, fused parts or gaps): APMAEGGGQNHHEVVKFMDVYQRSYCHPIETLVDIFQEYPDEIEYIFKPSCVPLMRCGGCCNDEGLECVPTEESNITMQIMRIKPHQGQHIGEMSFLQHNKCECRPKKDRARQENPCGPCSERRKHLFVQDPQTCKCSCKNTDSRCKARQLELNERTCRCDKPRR
# Experimental Details: ELISA, hVEGF165/hVEGFR2-Fc competition
Measured Quantity: IC50 (pM)
Expressed in pM, but write only the number.

Any idea what IC50 was measured for VEGFBII024 (VHH, not shown: small tags and cut ends, Bivalent anti-VEGF VHH; also called VEGFBII23B04-40GS-86H09) EVQLVESGGGLVQTGDSLRLSCEVSGRTFSSYSMGWFRQAQGKEREFVVAISKGGYKYDSVSLEGRFTISKDNAKNTVYLQINSLKPEDTAVYYCASSRAYGSSRLRLADTYEYWGQGTQVTVSSGGGGSGGGGSGGGGSGGGGSGGGGSGGGGSGGGGSGGGGSEVQLVESGGGLVQAGGSLRLSCTASGSAFKSYRMGWFRRTPGKEDEFVASISWTYGSTFYADSVKGRFTMSRDKAKNAGYLQMNSLKPEDTALYYCAAGAQSDRYNIRSYDYWGQGTQVTVSS ?
292

Every entry's value here was drawn from patent US20140120095A1.
